Reference source for all entries: patent US11365192B2

Target: human CYP4F2 (Homo sapiens (Human), UniProt P78329)
Sequence (P78329 5-520): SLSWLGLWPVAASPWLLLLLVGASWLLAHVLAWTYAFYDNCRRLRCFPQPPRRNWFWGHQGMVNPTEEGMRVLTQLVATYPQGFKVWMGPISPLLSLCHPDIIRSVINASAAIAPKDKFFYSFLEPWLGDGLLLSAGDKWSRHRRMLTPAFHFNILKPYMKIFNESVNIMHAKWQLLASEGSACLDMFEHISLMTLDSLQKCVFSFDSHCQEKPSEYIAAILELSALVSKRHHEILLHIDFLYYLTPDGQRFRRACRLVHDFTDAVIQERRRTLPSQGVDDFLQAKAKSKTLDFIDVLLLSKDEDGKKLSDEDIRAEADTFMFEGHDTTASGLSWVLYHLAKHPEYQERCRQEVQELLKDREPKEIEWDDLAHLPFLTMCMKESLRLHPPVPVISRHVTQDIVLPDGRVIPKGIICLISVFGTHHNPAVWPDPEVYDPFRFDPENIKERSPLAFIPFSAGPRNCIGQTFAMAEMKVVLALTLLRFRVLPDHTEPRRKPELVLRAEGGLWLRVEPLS
Experiment: Inhibition test against 20-HETE producing enzyme CYP4F2 (luciferine derivative, luminescence)
Type: biochemical
Details: E. coli membrane fraction expressing human CYP4F2, 2.5 μM luciferine derivative, room temperature 60 minutes
pIC50: −log10 of the molar value.
measurement_name: pIC50

structure_smiles: O=C(O)[C@H]1CC[C@@H](c2cccc(COc3ccc(-c4ccn[nH]4)nc3)c2)CC1
pIC50: 6.10
--
structure_smiles: O=C(O)c1cnn(CCCCOc2ccc(-c3ccn[nH]3)nc2)c1
pIC50: 5.20
--
structure_smiles: O=C(Cc1cccc(COc2ccc(-c3ccn[nH]3)nc2)c1)NCCO
pIC50: 5.96

P: O=C(O)CCC12CCC(COc3ccc(-c4ccn[nH]4)nc3)(CC1)CC2
Q: O=S(=O)(NCCc1c[nH]c2ccccc12)c1ccc(COc2ccc(-c3ccn[nH]3)nc2)cc1
R: Oc1cccc(CCCOc2ccc(-c3ccn[nH]3)nc2)c1
S: O=C(O)c1cncc(-c2cccc(COc3ccc(-c4ccn[nH]4)nc3)c2)c1
q: Which order do these items take when sorted by rising pIC50? List them. Arrange the labels as the request states and list them.
a: P, S, Q, R
(P: 5.36, S: 6.41, Q: 7.31, R: 7.72)
